These data points were gathered from patent US20260242735A1.

Biological target: human CD33 E85A (human, UniProt P20138 18-364)
Sequence (P20138 18-364 E85A limits assumed): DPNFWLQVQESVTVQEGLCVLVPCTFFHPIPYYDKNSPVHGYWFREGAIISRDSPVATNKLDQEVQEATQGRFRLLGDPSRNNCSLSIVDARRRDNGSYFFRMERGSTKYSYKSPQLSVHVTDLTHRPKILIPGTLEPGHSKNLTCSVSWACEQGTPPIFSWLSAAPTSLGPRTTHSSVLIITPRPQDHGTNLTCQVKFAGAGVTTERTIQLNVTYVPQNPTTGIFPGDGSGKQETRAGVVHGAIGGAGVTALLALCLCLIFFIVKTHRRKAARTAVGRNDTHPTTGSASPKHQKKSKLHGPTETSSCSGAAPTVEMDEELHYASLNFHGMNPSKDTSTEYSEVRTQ
Experiment: alanine scan, flow cytometry;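 note: HEK293-T cells transiently expressing single-residue alanine mutants of CD33 (alanine swapped to serine), antibody binding read by fluorescence in duplicate, background-subtracted, expressed relative to wild-type CD33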
reported.metric: Mean % WT Binding (% WT)
Answers are plain numbers, in % WT.

Reference set, count: 3
Refmab #1 (antibody, V domains shown, Full-length format is human IgG1 (Absolute Antibody Ab00283-10.0); The alanine scan used IgG or Fab; also called hP67.6) VH: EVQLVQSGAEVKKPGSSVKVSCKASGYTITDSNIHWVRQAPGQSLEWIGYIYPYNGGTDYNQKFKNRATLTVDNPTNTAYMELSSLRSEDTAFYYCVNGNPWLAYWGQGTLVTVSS VL: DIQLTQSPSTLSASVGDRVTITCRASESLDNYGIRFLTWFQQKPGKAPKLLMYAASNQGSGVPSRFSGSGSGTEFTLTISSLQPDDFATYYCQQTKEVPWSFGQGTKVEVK    88.9
Refmab #2 (antibody, V domains shown, Full-length format is human IgG1 Fc silent (PG-LALA); The alanine scan used IgG or Fab) VH: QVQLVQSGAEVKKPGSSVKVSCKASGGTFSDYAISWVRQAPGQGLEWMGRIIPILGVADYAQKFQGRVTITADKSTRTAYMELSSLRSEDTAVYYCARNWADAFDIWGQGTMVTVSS VL: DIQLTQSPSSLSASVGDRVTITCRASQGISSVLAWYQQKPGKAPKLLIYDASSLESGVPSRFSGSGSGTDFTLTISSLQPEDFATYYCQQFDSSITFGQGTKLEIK    114
Refmab #3 (antibody, V domains shown, Full-length format is human IgG1 Fc silent (PG-LALA); The alanine scan used IgG or Fab) VH: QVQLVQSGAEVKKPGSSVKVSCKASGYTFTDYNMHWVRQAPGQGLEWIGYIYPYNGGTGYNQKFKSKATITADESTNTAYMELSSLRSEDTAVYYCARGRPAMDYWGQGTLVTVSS VL: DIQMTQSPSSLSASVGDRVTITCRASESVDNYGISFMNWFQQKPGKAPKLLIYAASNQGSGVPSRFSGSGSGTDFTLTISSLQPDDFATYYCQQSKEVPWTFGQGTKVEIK    112

Turning now to a further binder:
# input So what's the measured Mean % WT Binding for this one? Refmab #4 (antibody, V domains shown, Full-length format is human IgG1 Fc silent (PG-LALA); The alanine scan used IgG or Fab) VH: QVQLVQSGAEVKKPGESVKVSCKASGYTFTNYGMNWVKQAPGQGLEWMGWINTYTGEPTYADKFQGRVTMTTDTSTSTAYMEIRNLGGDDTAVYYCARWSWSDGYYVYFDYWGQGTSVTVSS VL: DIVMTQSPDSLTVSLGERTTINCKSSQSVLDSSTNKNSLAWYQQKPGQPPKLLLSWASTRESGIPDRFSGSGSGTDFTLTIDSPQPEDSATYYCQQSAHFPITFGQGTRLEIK
# output 110
